# Tested on: 786-0
# TEST PROTOCOL: NCI tumour cell line growth inhibition, 48 h
Activity calls are given as the source filed them. Rule as the data show it: active = GI50 up to about 1.1 µM and inactive = higher.
Possible outcomes: true (1) = active, false (0) = inactive

>>> cat("CC(=O)CC(=O)N1CCOC1=O")
"false (0)"
>>> cat("C/C(=N\\NC(=O)CC#N)C(CN1CCCCC1)C(c1ccccc1)c1c(O)c2ccccc2oc1=O (stereo not given)")
"false (0)"
>>> cat("CCO[C@@H]1C2C=CC(C2)[C@H]1[N+](=O)[O-] (stereo not given in full)")
"false (0)"
>>> cat("CC1=C(/C=C/C(C)=C/C=C/C(C)=C/C=C/C=C(C)/C=C/C=C(C)/C=C/C2=C(C)C(=O)C(O)CC2(C)C)C(C)(C)CC(O)C1=O (stereo not given)")
"false (0)"
>>> cat("CCC(=O)Nc1cccc(/N=C/c2ccc(OC(=O)/C=C\\c3ccccc3)cc2)c1")
"false (0)"
>>> cat("O=C(CCc1nnc(S)[nH]1)Nc1ccccc1Cl")
"false (0)"
>>> cat("CN(C)CCNc1ccc(NCC[N+](C)(C)Cc2ccc([N+](=O)[O-])cc2)c2c1C(=O)c1ccccc1C2=O")
"false (0)"
>>> cat("CCCCCCN(CCCCCC)CCC(=O)c1ccc2cc(Br)c3ccccc3c2c1")
"false (0)"
>>> cat("C[C@@]1(O)CC[C@]2(C)C3CCCC3[C@H]12 (stereo not given in full)")
"false (0)"
>>> cat("O=C(c1ccccc1)C1(Br)S(=O)(=O)OCCOS1(=O)=O")
"false (0)"
>>> cat("CCC(/C(=N/NC(=O)C[N+](C)(C)C)c1ccccc1)C1OC(=O)c2ccccc21 (stereo not given)")
"false (0)"
>>> cat("COc1ccc(N2C(=O)C3CC(c4ccc(Br)cc4)c4c([nH]c5ccccc45)C3C2=O)cc1 (stereo not given)")
"false (0)"
>>> cat("CCn1cc(C(=O)O)c(=O)c2ccc(C)nc21")
"false (0)"
>>> cat("Oc1cc(-c2cccc(OC(F)(F)F)c2)nc2ccc(N3CCCC3)cc12")
"true (1)"
>>> cat("C=CCn1c(-c2cc(C(C)(C)C)c(O)c(C(C)(C)C)c2)cs/c1=N\\C(P(=O)(O)O)P(=O)(O)O")
"false (0)"
>>> cat("CCCN1CCC(=O)N(CCC(F)(F)C(F)(F)C(F)(F)C(F)(F)C(F)(F)C(F)(F)F)C1=S")
"false (0)"
>>> cat("C1=C(c2ccccc2)CN(c2ccccc2)OC1")
"false (0)"
>>> cat("CCCCCCCCCC(=O)OCC1OC(n2cc(F)c(=O)[nH]c2=O)C(NC(=O)OCc2ccccc2)C(OC(=O)CCCCCCCCC)C1O (stereo not given)")
"false (0)"
>>> cat("CN(CC(=O)O)c1ncc2c(n1)-c1ccccc1CC2")
"false (0)"
>>> cat("COCN1C(=O)[C@@H]2CCCN2C(=O)c2cc(N)ccc21")
"false (0)"

====

# Test system: K562
# TEST PROTOCOL: NCI tumour cell line growth inhibition, 48 h
The source made the active and inactive calls. No stated cut-off is given here; in the data, active = GI50 up to about 1.1 µM and inactive = higher.
Possible outcomes: active, inactive

>>> cat("COc1cc([C@@H]2c3cc4c(cc3[C@@H](NC(=O)c3ccc([N+](=O)[O-])cc3)C3COC(=O)[C@@H]32)OCO4)cc(OC)c1O (stereo partly drawn)")
"active"
>>> cat("O=C1C(CN2CCCCC2)CCC1CN1CCCCC1 (stereo not drawn)")
"inactive"
>>> cat("Cc1cccc(N2C(=O)C3c4[nH]c5ccccc5c4C4CCC(C(C)(C)C)CC4C3C2=O)c1 (stereo not drawn)")
"inactive"
>>> cat("COC(=O)C1=CC(=O)OC1(OO)c1ccccc1 (stereo not drawn)")
"inactive"
>>> cat("O=[N+]([O-])c1ccc2nc(/C(=N/Nc3ccccc3)C(O)c3ccc(C(O)/C(=N\\Nc4ccccc4)c4nc5ccc([N+](=O)[O-])cc5nc4O)cc3)cnc2c1 (stereo not drawn)")
"inactive"
>>> cat("CCOC(=O)c1cnc2[nH]ccn2c1=O")
"inactive"
>>> cat("O=C(CCc1nnc(S)[nH]1)NC12CC3CC(CC(C3)C1)C2")
"inactive"
>>> cat("O=c1[nH]c(=O)n(C2OC(CO)C(O)C2O)c2nc(-c3ccc(-c4ccccc4)cc3)cnc12 (stereo not drawn)")
"inactive"
>>> cat("N#Cc1c(O)c(/C=N/c2ncccn2)c(=O)n2c1[nH]c1ccccc12")
"inactive"
>>> cat("COc1cccc2cc(C(=O)Nc3ccccn3)c(=N)oc12")
"inactive"
>>> cat("c1ccc2c3nc(C4CCCC4)nc-3c(NC3CCCC3)[nH]c2c1")
"inactive"
>>> cat("O=C(O)CSc1nnc(-c2ccc(O)cc2)[nH]1")
"inactive"
>>> cat("CN(C)/C=C/c1c2c(nc3ccccc13)C(=O)c1ccccc1C2=O")
"active"
>>> cat("CC1CNC(c2ccc(CN3CCC(C4CCN(Cc5ccc(C6=NC(C)CN6)cc5)CC4)CC3)cc2)=N1 (stereo not drawn)")
"inactive"
>>> cat("CS(=O)(=O)N(CCC#N)c1ccc(/C=C2\\N=C(c3ccccc3Cl)OC2=O)cc1")
"inactive"
>>> cat("N#CCCC1(CCC#N)CCc2ccccc2C1=O")
"inactive"
>>> cat("CC(=O)OC1C2CCC3CC2C2(SCCS2)C31 (stereo not drawn)")
"inactive"
>>> cat("O=C1Oc2ccccc2C(=O)/C1=C/N1C(=O)/C(=C/c2ccc3c(c2)OCO3)SC1=S")
"inactive"
>>> cat("CCc1n[nH]c(=O)n1N1C(=O)C2CC=CCC2C1=O (stereo not drawn)")
"inactive"
>>> cat("COc1ccc(C2=Nn3c(nnc(Cc4ccc(Cl)cc4)c3=O)SC2)cc1")
"inactive"
>>> cat("CCOc1ccc(/N=C/c2ccnc3ccccc23)cc1")
"inactive"
>>> cat("Nc1ccc(C(=O)N/C(=C\\c2ccc3c(c2)OCO3)c2nc3ccccc3s2)cc1")
"inactive"
>>> cat("COC12C=CC(CC1)C(C)(C)C2OS(C)(=O)=O (stereo not drawn)")
"inactive"

Where these numbers come from: ChEMBL document CHEMBL1201862
